experiment: chemical genetic growth profiling, strain panel (AID 1159580);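 further: tested at 20 µM; growth read once vehicle control cultures reached saturation at 30 °C; 1 = growth at the plate median or of vehicle wells; lower values mean less growth of the strain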
reported conditions: S. cerevisiae deletion strains, growth OD, locus YOR106W, strain vam3
Among all 5,500 compounds or so, about 2,000 (36%) were called active. Another 18% or so got no clear call; they are omitted. No stated cut-off is given here; in the data, active means normalized growth mostly below about 0.91 (no sharp cut-off); inconclusive means no clear call, values can overlap the other calls; inactive means mostly above about 0.92. Some of the results follow.
Outcome (select one): active, inactive

// known answers, use as guide
compound: Oc1ccc(Cl)c2cccnc12
label class: active
--
compound: C1CCN2CC3CC(CN4CCCCC34)C2C1 (stereo not drawn)
label class: inactive
--
compound: O=C1CCCC2C3CC(CN12)[C@@H]1CCCCN1C3 (stereo partly drawn)
label class: inactive
--
compound: CC(=O)NCCCCCC(=O)O
label class: inactive
--
compound: Oc1c(I)cc(I)c2cccnc12
label class: active

Now, please, on to the next compound.
Request: Outcome logged for "CC(=O)Oc1ccc(Cl)c2cccnc12" in this assay:
Result: active

====

experiment: chemical genetic growth profiling, strain panel (AID 1159580);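 further: tested at 20 µM; growth read once vehicle control cultures reached saturation at 30 °C; 1 = growth at the plate median or of vehicle wells; lower values mean less growth of the strain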
reported conditions: S. cerevisiae deletion strains, growth OD, strain TSCII, active compounds read low
The whole screen tested about 5,500 compounds, of which about 2,000 (36%) were called active. Another 18% or so got no clear call; they are omitted. Some of the results follow.
Known normalized growth of a selection of molecules
Form field (numeric): enter value without unit.

molecule: O=[N+]([O-])/C=C/c1ccsc1
normalized growth: 0.0894

Request: For "CCCc1c(C(=O)Sc2ccccn2)cnn1-c1ccc(Cl)cc1" , what is its reported normalized growth?
Result: 0.955

Request: # get_value(readout='normalized growth', item= "N#CC(C#N)=C/C=C(/Sc1ccc(F)c(Cl)c1)c1ccc(Cl)cc1" )
Result: 0.945

Request: Recorded normalized growth for "CCCc1c(C(=O)NNc2cccc(Cl)c2)cnn1-c1ccccc1" , please?
Result: 0.988

Request: Please look up its normalized growth: "O=S(=O)(N/N=C\c1ccc(Cl)cc1)c1ccc(-c2ccccn2)s1"
Result: 0.984

Request: Give its normalized growth value. Item: "O=C(c1ccc2ccccc2c1)N1CCN(c2ccnc3cc(Cl)ccc23)CC1"
Result: 0.998

Request: Any idea what its normalized growth is? The molecule is "O=C(NC(=O)c1c(F)cccc1Cl)OCc1ccc(Cl)cc1Cl"
Result: 0.979

Request: # lookup: normalized growth of "CCCc1c(C(=O)NC2Cc3ccccc3C2)cnn1-c1ccccc1"
Result: 0.997

Request: Given the molecule "Cc1c2c(=O)[nH]ncc2c(-c2ccccc2)n1-c1ccc([N+](=O)[O-])cc1" , what is its reported normalized growth?
Result: 0.987

Request: Suppose we examine the molecule "CCOc1ccc(/C=C(\C)[N+](=O)[O-])cc1OC" ; what normalized growth value has been reported?
Result: 0.977

====

experiment: chemical genetic growth profiling, strain panel (AID 1159580);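 further: tested at 20 µM; growth read once vehicle control cultures reached saturation at 30 °C; 1 = growth at the plate median or of vehicle wells; lower values mean less growth of the strain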
reported conditions: S. cerevisiae deletion strains, growth OD, locus YDR335W, strain msn5, active compounds read low
In all, about 5,500 compounds went through this assay and about 2,000 (36%) were called active. Inconclusive results (about 18%) are left out. This is one part of the list.
assay endpoint: normalized growth
Please give the numeric answer without any surrounding text.

compound: C=C(NC(=O)C(=C)NC(=O)c1csc(C2=NC3c4csc(n4)C4NC(=O)c5csc(n5)C(C(C)(O)C(C)O)NC(=O)C5CSC(=N5)C(=CC)NC(=O)C(C(C)O)NC(=O)c5csc(n5)C3(CC2)NC(=O)C(C)NC(=O)C(=C)NC(=O)C(C)NC(=O)C(C(C)CC)NC2C=Cc3c(C(C)O)cc(nc3C2O)C(=O)OC4C)n1)C(N)=O (stereo unspecified)
normalized growth: 0.991
--
compound: CC(=O)Oc1ccc(Cl)c2cccnc12
normalized growth: 0.0695
--
compound: O=C(O[C@@H]1Cc2c(O)cc(O)cc2O[C@@H]1c1cc(O)c(O)c(O)c1-c1c([C@H]2Oc3cc(O)cc(O)c3C[C@H]2O)cc(O)c(O)c1O)c1cc(O)c(O)c(O)c1
normalized growth: 0.979

Request: Give the measured normalized growth of C=CC(C1=CC(=O)C(OC)=CC1=O)c1ccc(O)cc1 (stereo unspecified) .
Result: 1.01

Request: Bench note: what normalized growth did NC(=NCCC[C@H](N)C(=O)O)NC(CCC(=O)O)C(=O)O (stereo partly specified) show?
Result: 0.995

Request: // lookup normalized growth for CCC(Cc1c(I)cc(I)c(N)c1I)C(=O)O (stereo unspecified)
Result: 0.947

Request: Need normalized growth of C=CC(C1=CC(=O)C=CC1=O)c1ccccc1 (stereo unspecified) , thanks.
Result: 0.999

Request: Give its normalized growth value. Item: "Oc1c(I)cc(I)c2cccnc12"
Result: 0.0856

Request: Give the measured normalized growth of "OC[C@@H](O)[C@@H](O[C@@H]1O[C@H](CO)[C@@H](O)[C@H](O)[C@H]1O)[C@H](O)[C@@H](O)CO" .
Result: 0.992

Request: // normalized growth lookup, key: "O=C(O)c1ccccc1Nc1ccccc1"
Result: 0.941

Request: What measured normalized growth goes with "Oc1c(Br)cc(Br)c2cccnc12" ?
Result: 0.0583

Request: Request the reported normalized growth associated with "N[C@@H](Cc1ccc(O)c(O)c1)C(=O)O"
Result: 0.997

Request: Which value of normalized growth has been reported for "C=C[C@@H](C1=CC(=O)C(OC)=C(OC)C1=O)c1ccccc1" in the records?
Result: 0.977

Request: # get_value(readout='normalized growth', item= "Oc1c(Cl)cc(Cl)c2cccnc12" )
Result: 0.0654

Request: Reported normalized growth, compound C=CC(C1=CC(=O)C(OC)=CC1=O)c1ccccc1 (stereo unspecified) : ____
Result: 0.968

Request: Requested field: normalized growth. Item: "NCCCC[C@H](N[C@@H](CCc1ccccc1)C(=O)O)C(=O)N1CCC[C@H]1C(=O)O"
Result: 0.972

Request: State the recorded normalized growth for this entry: COc1ccccc1OCCNCC(O)COc1cccc2[nH]c3ccccc3c12 (stereo unspecified)
Result: 1

Request: Report normalized growth for O=c1[nH]c(=O)n(C2C[C@@H](O)[C@@H](CO)O2)cc1F (stereo partly specified) please.
Result: 1.01

Request: Look up normalized growth for this compound: "C[C@H](N)[C@H](O)c1ccc(O)c(O)c1"
Result: 1.01

Request: For C1CCN2CC3CC(CN4CCCCC34)C2C1 (stereo unspecified) , what is its reported normalized growth?
Result: 1.04

Request: Fill in the blank: the reported normalized growth of "Cc1ccc2c(Cl)cc(Cl)c(O)c2n1" is ____.
Result: 1.01
